Test system: KM12 colon
Run description: NCI tumour cell line growth inhibition, 48 h
Measured parameter: TGI

Take each entry in turn and give its TGI.
1. CC(NC(=O)C(Cc1ccc(OC(=O)c2ccccc2)cc1)NC(=O)OC(C)(C)C)C(=O)NCC(=O)NC(Cc1ccccc1)NC(=O)OCc1ccccc1 (stereo not given)
2. CC(=O)NC(Cc1cnc[nH]1)C(=O)N1CCCC1C(N)=O (stereo not given)
3. Clc1ccc(N2CCN(CCCN3CCN(c4cccc(Cl)c4)CC3)CC2)cc1
4. COc1ccc2cc(C(=O)Nc3ccc(O)c(C(=O)O)c3)ccc2c1OC
5. CCOC(=O)C1N(S(=O)(=O)c2ccc(C)cc2)CCC12c1ccccc1NC2c1ccc(OC)c(OC)c1 (stereo not given)

> 100 µM
> 100 µM
15.6 µM
> 100 µM
> 100 µM

###

Tested on: A498 renal
Run description: NCI tumour cell line growth inhibition, 48 h
Please note: y applies when TGI is 40 µM or greater, and n applies otherwise.

Worked set:
                                   compound  qualitative_label
0  C/C(=N\NC(C)(C)C)c1sc(-c2nc(C)c(/C(C)=N/NC(C)(C)C)s2)nc1C                  y
1  COc1ccc2c(c1)OCC1c3cc(O)ccc3OC21 (centres undefined)                  y
2              CC1=C(C)C(=O)C2=C(OCCO2)C1=O                  n

Does Cc1ccc(S(=O)(=O)NC2=NCCN2C(=S)SN2CCn3c2nsc3=S)cc1 have a reported TGI of at least 40 µM?
y

Does CNC(=S)N/N=C(\C)c1cc(OC)ccc1O have a reported TGI of at least 40 µM?
y

###

For each record, write down the corresponding TGI.
Test system: BT-549 breast
Run description: NCI tumour cell line growth inhibition, 48 h

Solved entries:
Compound	Result
CCOC(=O)C1C(=O)CC(O)(c2ccccc2)C(C(=O)OCC)C1c1ccc(N(C)C)cc1 (stereo unspecified)	> 100 µM
CSCCC(NC(=O)CNC(=O)C(CC(=O)O)NC(=O)C(NC(=O)C(NC(=O)C(NC(=O)CNC(=O)C(CCC(N)=O)NC(=O)C(CCSC)NC(=O)C(CC(=O)O)NC(=O)C(C)NC(=O)C(C)NC(=O)C(NC(=O)C(CO)NC(=O)C(N)CC(C)C)C(C)O)C(C)C)C(C)C)C(C)O)C(=O)NC(C)C(=O)NC(CO)C(=O)NCC(=O)NC(CC(C)C)C(=O)NC(CC(=O)O)C(=O)NC(CCCCN)C(=O)NC(CC(=O)O)C(=O)NC(Cc1ccc(O)cc1)C(=O)NC(CC(C)C)C(=O)NC(CCCCN)C(=O)N1CCCC1C(=O)NC(CC(=O)O)C(=O)NC(CC(=O)O)C(=O)O (stereo unspecified)	> 82.5 µM
Cc1ccc(C(N)=Nc2ccccc2)cc1	> 100 µM
OCC#Cc1ccccc1C#CCCCCCCC#Cc1ccccc1C#CCO	37.9 µM
CNc1cc(OCc2ccccc2)c(OC)cc1C(=O)N1CCC[C@H]1CO	> 100 µM

Turning to the following compound.
State the recorded TGI for this entry: C[C@]12C=CC(=O)C=C1[C@@H](F)C[C@H]1[C@@H]3CC[C@](O)(C(=O)CO)[C@@]3(C)C[C@H](O)[C@@]12F
> 100 µM

###

System: COLO 205 colon
Run description: NCI tumour cell line growth inhibition, 48 h
For each record, write down the corresponding TGI.
Give bare numbers, in µM.

In [3]: df
Out[3]:
                                   molecule  measured_parameter  unit_abbrev  quantitative_result
0  CC(C)(C)c1ccc2c(c1)C(O)(c1ccccc1)c1cc(C(C)(C)C)ccc1C2(O)C(F)(F)F (centres undefined)                 TGI           µM                 3.27

Turning to the following molecule.
API: value(readout= TGI, system= COLO 205 colon, query= COc1ccc(C(=O)N/N=C2\C(=O)c3c(C)cc(C)cc3CC2(C)C)cc1 )
49.3

###

For each record, write down the corresponding TGI.
System: M19-MEL melanoma
Run description: NCI tumour cell line growth inhibition, 48 h

>>> print(df.to_string())
                                   molecule  experimental_system     result
0  Cc1ccccc1C1=C/C(=C(\SS/C(C(=O)c2ccc(OCC(=O)O)c(Cl)c2Cl)=C2\C=C(c3ccccc3C)SS2)C(=O)c2ccc(OCC(=O)O)c(Cl)c2Cl)SS1     M19-MEL melanoma  > 56.4 µM
1  CC(C)(C)c1cc(Cc2ccc([N+](C)(C)C)cc2)c(O)c(C(C)(C)C)c1     M19-MEL melanoma    26.6 µM
2   CCOCc1cc(=O)c2c(O)cc3c(c2o1)CCC(C)(C)O3     M19-MEL melanoma   > 100 µM

State the recorded TGI for this entry: COS(=O)(=O)OCCC(NC(=O)OCc1ccccc1)C(=O)OCc1ccccc1 (centres undefined)
> 100 µM

###

Test system: UO-31 renal
Run description: NCI tumour cell line growth inhibition, 48 h; in the data active means GI50 below about 0.43 µM; inactive means the rest
Pick from active, inactive when you respond.

Worked set:
                                   molecule  qualitative_label
0  CCOC(=O)c1ccc2[nH]c(O)c(C(=Nc3ccc(N(C)C(=O)CN4CCN(C)CC4)cc3)c3ccccc3)c2c1             active
1  CCCN1C(=O)/C(=C/c2cccc(O)c2)SC1=Nc1ccc(OC)cc1           inactive
2  Cc1cc(C)c(C#N)c(SCC(=O)c2sc3c(C#N)c(C)cc(C)[n+]3c2[O-])n1           inactive
3  COc1ccc2c(c1)OCC1c3cc(O)ccc3OC21 (stereo not given)           inactive

Outcome logged for CCOC(=O)C1=C(N)CCC1C (stereo not given) in this assay:
inactive

###

System: TK-10 renal
Run description: NCI tumour cell line growth inhibition, 48 h
Measured parameter: GI50

Solved entries:
                               smiles_input  measured_parameter   result
0   CCN(CC)CCOc1nc2c3ccc(Cl)cc3nn2c2ccccc12                GI50  3.88 µM
1  CCN(CC)CCNC(=O)c1cn2ncnc(Oc3ccc(NC(=O)Nc4ccc(Cl)c(C(F)(F)F)c4)cc3)c2c1C                GI50  2.11 µM
2  COc1ccc(C(=O)n2nc(/C=C/c3ccc(O)c(OC)c3)cc2/C=C/c2ccc(O)c(OC)c2)cc1                GI50  1.91 µM

Take each entry in turn and give its GI50.
1. Nc1cc(N)c2nc(-c3ccccc3)c(Sc3ccc(Cl)c(Cl)c3)nc2c1
2. C/C=C(\C)C(=O)O[C@H]1C=CC(=O)O[C@H]1CC[C@H](O)[C@H](C)O

1: 14.6 µM; 2: 9.78 µM

###

Tested on: OVCAR-4 ovarian
Run description: NCI tumour cell line growth inhibition, 48 h
Measured parameter: TGI

Solved entries:
In [3]: df
Out[3]:
                                   compound    result
0                 Oc1c(-c2ccccc2)nc2ccccn12  > 100 µM
1  CCOc1ccc2nc(S/C(=C/C=C(C#N)C#N)c3ccc(Cl)cc3)sc2c1   43.8 µM

Take each entry in turn and give its TGI.
1. C[N+](C)(C)CC(=O)N/N=C(/Cc1nc2ccc(Cl)cc2[nH]c1=O)C1=NS(=O)(=O)c2cc(S(N)(=O)=O)c(Cl)cc2N1
2. Nc1ccc2c(c1)S(=O)(=O)c1cc(O)ccc1O2
3. CC(C)OC(=O)c1ccc(CCc2cc(O)c(Br)cc2O)cc1
4. COc1ccc(-c2nc3ccccc3c(=O)[nH]2)c(OC)c1
5. Cc1cn(CCCCCCOC(=O)NC(CCCN=C(N)N)C(=O)O)c(=O)[nH]c1=O (stereo not given)
6. N#CC(C#N)N=Nc1ccc(-c2nc3ccccc3[nH]2)cc1
7. CC(=O)NC(Cc1cnc[nH]1)C(=O)N1CCCC1C(N)=O (stereo not given)
8. CC1C2C=CC1C(c1c3ccc(=O)c(O)c-3oc3c(O)c(O)ccc13)C2C(=O)O (stereo not given)

["> 100 µM", "> 100 µM", "5.54 µM", "> 100 µM", "> 100 µM", "68.9 µM", "> 100 µM", "> 100 µM"]

###

System: SK-MEL-28 melanoma
Run description: NCI tumour cell line growth inhibition, 48 h
For each record, write down the corresponding TGI.

Compound	TGI
O=C(Nc1nc2ncn(CCNCCn3cnc4nc(NC(=O)c5ccccc5)[nH]c(=O)c43)c2c(=O)[nH]1)c1ccccc1	> 100 µM
Cc1cc(C)c(C#N)c(SCC(=O)c2sc3c(C#N)c(C)cc(C)[n+]3c2[O-])n1	> 100 µM
C/C(=N\NC(C)(C)C)c1sc(-c2nc(C)c(/C(C)=N/NC(C)(C)C)s2)nc1C	> 100 µM
CC1=C(C(=O)Nc2cc(F)c(F)cc2F)C(c2ccc3c(c2)OCO3)C(C(=O)Nc2cc(F)c(F)cc2F)=C(C)N1	> 100 µM
CN(CC(=O)O)S(=O)(=O)c1ccc(F)cc1	> 100 µM

Take each entry in turn and give its TGI.
1. O=c1cc(-c2ccccc2)[nH]c2ccc(N3CCCCC3)cc12
2. Cc1nc2c([nH]c1C)c(O)cc1c3c(nc12)C(=O)CCC3
3. COc1ccc(C(=O)N/N=C2\C(=O)c3c(C)cc(C)cc3CC2(C)C)cc1
4. O=c1c2c([nH]c3cc4c(cc13)OCO4)-c1ccccc1C2

1: > 100 µM; 2: > 100 µM; 3: 42.2 µM; 4: 59.9 µM

These data points were gathered from PubChem BioAssay (NCI).
